tested on: BV-173; test: Cytotoxicity against human BV-173 cells assessed as inhibition of cell growth incubated for 72 hrs by MTT assay; format: functional, cell-based; conditions: BV-173, 72 h
Reported Endpoint: pIC50
Lab note: report pIC50 as minus log10 of the concentration in molar units, number only.

**Q:** For BV-173, provide pIC50 of CCCCCCCCCC[C@@H](CC(=O)O)OC(=O)C[C@H](CCCCCCCCCC)O[C@@H]1O[C@@H](C)[C@H](O)[C@@H](O)[C@H]1O please.
**A:** 4.30

----------
experiment: Cytotoxicity against human OVXF 899L cells assessed as inhibition of cell proliferation by propidium iodide assay; assay type: functional, cell-based
Reported Endpoint: IC50
Answer with the number, then the unit.

**Q:** GET /values?readout=IC50&item= C/C=C(\C)[C@H](O[C@@H]1O[C@H](CO)[C@@H](O)[C@H](O)[C@H]1O)[C@H](C)/C=C(C)/C=C/C/C(C)=C/Cc1nc(OC)cc(O)c1C
**A:** 2000 nM

----------
biological target: RAC-alpha serine/threonine-protein kinase (Homo sapiens); assay: Inhibition of AKT1 (unknown origin) in presence of ATP by ELISA
Sequence (P31749 whole entry): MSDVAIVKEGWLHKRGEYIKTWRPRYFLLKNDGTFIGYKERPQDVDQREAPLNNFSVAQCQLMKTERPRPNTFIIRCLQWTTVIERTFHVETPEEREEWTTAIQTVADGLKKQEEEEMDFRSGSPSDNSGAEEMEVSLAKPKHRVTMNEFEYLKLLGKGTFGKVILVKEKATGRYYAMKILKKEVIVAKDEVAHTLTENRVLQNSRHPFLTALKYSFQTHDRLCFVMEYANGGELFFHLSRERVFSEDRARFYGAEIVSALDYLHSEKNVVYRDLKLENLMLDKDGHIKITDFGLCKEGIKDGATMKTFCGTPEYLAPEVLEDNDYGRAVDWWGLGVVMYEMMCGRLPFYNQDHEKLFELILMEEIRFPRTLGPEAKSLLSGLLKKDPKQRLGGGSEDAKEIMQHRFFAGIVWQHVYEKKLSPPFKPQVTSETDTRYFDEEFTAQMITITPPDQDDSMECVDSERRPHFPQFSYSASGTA
Reported Endpoint: pIC50
Lab note: report pIC50 as minus log10 of the concentration in molar units, number only.

**Q:** GET /values?readout=pIC50&item= CCCCCCCCCCCCCCCCCOC(=O)O[C@H](COC(=O)CCCCCCCCCCCCCCCCC)COP(=O)(O)O[C@@H]1[C@H](O)[C@H](OP(=O)(O)O)[C@@H](O)[C@H](O)[C@H]1O
**A:** 4.71

----------
Measured pKi accompanies every entry in the list below.
target: Sarcoplasmic/endoplasmic reticulum calcium ATPase 1 (Oryctolagus cuniculus, UniProt P04191); experiment: Inhibition of SERCA1a in rabbit Sarcoplasmic reticulum assessed as inhibition constant in presence of [gamma-32P]ATP and calcium ionophore A23187 by coupled enzyme assay
Sequence (P04191 whole entry): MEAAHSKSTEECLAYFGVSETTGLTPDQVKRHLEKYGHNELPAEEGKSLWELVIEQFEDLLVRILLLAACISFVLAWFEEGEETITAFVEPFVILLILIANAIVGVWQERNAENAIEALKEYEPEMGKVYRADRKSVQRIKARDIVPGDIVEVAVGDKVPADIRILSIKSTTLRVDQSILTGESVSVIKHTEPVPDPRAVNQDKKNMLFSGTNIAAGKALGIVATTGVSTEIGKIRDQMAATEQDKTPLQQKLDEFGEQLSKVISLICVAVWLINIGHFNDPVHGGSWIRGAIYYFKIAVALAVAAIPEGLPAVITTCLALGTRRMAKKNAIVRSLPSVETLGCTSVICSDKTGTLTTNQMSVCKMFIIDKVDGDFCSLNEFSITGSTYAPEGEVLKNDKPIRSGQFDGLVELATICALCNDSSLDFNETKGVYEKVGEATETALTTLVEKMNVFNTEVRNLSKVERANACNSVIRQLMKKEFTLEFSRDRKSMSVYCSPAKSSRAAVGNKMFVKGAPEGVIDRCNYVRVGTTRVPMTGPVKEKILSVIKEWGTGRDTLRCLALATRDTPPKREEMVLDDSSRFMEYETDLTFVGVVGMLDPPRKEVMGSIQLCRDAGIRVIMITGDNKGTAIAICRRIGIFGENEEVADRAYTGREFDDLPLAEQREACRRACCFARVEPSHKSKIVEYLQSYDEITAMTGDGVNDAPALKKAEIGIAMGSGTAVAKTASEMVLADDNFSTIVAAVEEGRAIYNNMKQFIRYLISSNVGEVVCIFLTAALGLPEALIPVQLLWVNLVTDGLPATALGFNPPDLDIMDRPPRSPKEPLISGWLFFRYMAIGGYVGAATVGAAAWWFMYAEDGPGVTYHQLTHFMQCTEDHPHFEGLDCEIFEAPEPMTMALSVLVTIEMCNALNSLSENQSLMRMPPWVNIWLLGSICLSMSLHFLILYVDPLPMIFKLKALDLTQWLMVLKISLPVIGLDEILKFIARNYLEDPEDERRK
Lab note: report pKi as minus log10 of the concentration in molar units, number only.

sample_smiles=C/C=C/C/C(C)=C\[C@H]1C/C=C/C=C/C[C@H](C)/C=C(\C)[C@@H](OC)C/C=C/[C@@H](O[C@@H]2O[C@H](CO)[C@@H](O)[C@H](OC)[C@H]2O)CC(=O)O1 observed=7.72

**Q:** GET /values?readout=pKi&item= C/C=C/C/C(C)=C\[C@H]1C[C@H]2C=C[C@H](C[C@H](C)/C=C(\C)[C@@H](OC)C/C=C/[C@@H](O[C@@H]3O[C@H](CO)[C@@H](O)[C@H](OC)[C@H]3O)CC(=O)O1)OO2
**A:** 7.74

----------
tested on: A549; experiment: Cytotoxicity against human A549 cells assessed as inhibition of cell proliferation by MTT colorimetric assay; format: functional, cell-based
Reported Endpoint: IC50 (µM)
Response body: numeric value in µM, unit text excluded.

**Q:** For A549, provide IC50 of C=CCCCC[C@@H](C)O[C@@H]1O[C@@H](C)[C@H](OC(=O)C[C@H]2C[C@@H]3O[C@]4(C)CC[C@H]5[C@H](C)CC[C@@H]([C@H]2C)[C@@]35OO4)C[C@H]1O please.
**A:** 15.1

----------
tested on: PC-3M; experiment: Cytotoxicity against human PC-3M cells assessed as inhibition of cell proliferation by propidium iodide assay; assay type: functional, cell-based
Reported Endpoint: pIC50
Lab note: report pIC50 as minus log10 of the concentration in molar units, number only.

**Q:** GET /values?readout=pIC50&item= C/C=C(\C)[C@H](O[C@@H]1O[C@H](CO)[C@@H](O)[C@H](O)[C@H]1O)[C@H](C)/C=C(C)/C=C/C/C(C)=C/Cc1nc(OC)cc(O)c1C
**A:** 5.70
